Measured Max. cellular uptake values are reported for all entries that follow.
# Tested on: immortalized mouse microglia (BV2)
# assaySummary: Time-dependent cellular uptake of compounds into BV2 cells (LC-MS/MS)
# Type: cell-based
# conditionsUsed: 100 µM compound, 1–60 min, mean ± SD, n = 3

Observe how each entry below is paired with its result.
* CC(C)Cc1ccc([C@H](C)C(=O)Oc2cccc(C[C@H](N)C(=O)O)c2)cc1 | 25.90 ± 2.41 nmol/mg of protein
* CC(C(=O)Nc1ccc(CC(N)C(=O)O)cc1)c1cccc(C(=O)c2ccccc2)c1 (stereo not drawn) | 1.96 ± 0.14 nmol/mg of protein
* NC(Cc1cccc(C(=O)Oc2ccc(-c3ccc(-c4ccc5c(c4)COC5=O)s3)cc2)c1)C(=O)O (stereo not drawn) | 176.0 ± 9.0 nmol/mg of protein
* C[C@H](C(=O)Nc1cccc(C[C@H](N)C(=O)O)c1)c1cccc(C(=O)c2ccccc2)c1 | 22.31 ± 1.34 nmol/mg of protein
* COc1ccc2cc([C@H](C)C(=O)Nc3cccc(C[C@H](N)C(=O)O)c3)ccc2c1 | 4.48 ± 0.37 nmol/mg of protein

Q) Lab request: please report Max. cellular uptake under test system immortalized mouse microglia (BV2) for COc1cc(/C=C/C(=O)Oc2cccc(C[C@H](N)C(=O)O)c2)ccc1O
A) 21.14 ± 2.93 nmol/mg of protein

Q) Given the entry C[C@H](C(=O)OCc1ccc(C[C@@H](N)C(=O)O)cc1)c1cccc(C(=O)c2ccccc2)c1 , what Max. cellular uptake was observed with immortalized mouse microglia (BV2)?
A) 10.20 ± 0.61 nmol/mg of protein

Q) Provide value of Max. cellular uptake for this record tested with immortalized mouse microglia (BV2): COc1cc(/C=C/C(=O)Nc2cccc(C[C@H](N)C(=O)O)c2)ccc1O
A) 1.11 ± 0.09 nmol/mg of protein

###

# systemName: LAT1 (Mus musculus, UniProt Q9Z127)
# Sequence (Q9Z127 whole entry): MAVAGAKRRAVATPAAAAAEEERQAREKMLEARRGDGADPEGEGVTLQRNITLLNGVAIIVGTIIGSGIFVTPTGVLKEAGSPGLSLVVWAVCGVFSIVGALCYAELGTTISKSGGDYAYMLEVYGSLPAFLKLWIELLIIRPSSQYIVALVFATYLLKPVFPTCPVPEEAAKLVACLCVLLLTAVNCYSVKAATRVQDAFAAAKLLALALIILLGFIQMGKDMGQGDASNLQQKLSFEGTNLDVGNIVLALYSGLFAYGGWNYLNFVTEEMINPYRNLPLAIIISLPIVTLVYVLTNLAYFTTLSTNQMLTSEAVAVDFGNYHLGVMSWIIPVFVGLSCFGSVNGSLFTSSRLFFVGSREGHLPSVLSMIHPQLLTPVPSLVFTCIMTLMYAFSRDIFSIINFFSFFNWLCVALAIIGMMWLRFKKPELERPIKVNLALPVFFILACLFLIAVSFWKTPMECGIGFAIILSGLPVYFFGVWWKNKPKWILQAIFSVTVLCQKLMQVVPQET
# Sequence (P10852 whole entry partner): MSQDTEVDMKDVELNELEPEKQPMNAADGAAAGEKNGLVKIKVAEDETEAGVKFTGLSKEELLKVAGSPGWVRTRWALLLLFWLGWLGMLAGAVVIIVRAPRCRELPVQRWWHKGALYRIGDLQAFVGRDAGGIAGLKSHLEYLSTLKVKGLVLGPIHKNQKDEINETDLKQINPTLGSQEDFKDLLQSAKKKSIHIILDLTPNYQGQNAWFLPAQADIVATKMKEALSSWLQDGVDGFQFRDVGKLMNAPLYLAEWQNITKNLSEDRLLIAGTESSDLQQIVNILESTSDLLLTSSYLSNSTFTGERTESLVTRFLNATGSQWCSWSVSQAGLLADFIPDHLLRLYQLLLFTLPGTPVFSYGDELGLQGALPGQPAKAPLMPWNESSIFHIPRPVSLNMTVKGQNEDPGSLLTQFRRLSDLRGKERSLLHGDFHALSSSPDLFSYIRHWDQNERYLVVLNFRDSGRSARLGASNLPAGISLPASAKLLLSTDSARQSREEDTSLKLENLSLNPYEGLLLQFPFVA
# assaySummary: Inhibition type of [14C]-L-Leu uptake (Hanes-Woolf plots) in BV2 cells
# Type: cell-based
# conditionsUsed: 0.010–0.20 µM [14C]-L-Leu in the presence of the compound at its IC50; BV2; mean ± SD, n = 3–4
reportedEndpoint: Vmax of [14C]-L-Leu uptake (nmol/min/mg)
Supply the numeric figure in nmol/min/mg, leaving out any unit text.

Here are 6 compounds together with their reported answers.
• CC(C)Cc1ccc([C@H](C)C(=O)Oc2cccc(C[C@H](N)C(=O)O)c2)cc1 [Compound 13] = 2.186
• C[C@H](C(=O)Nc1cccc(C[C@H](N)C(=O)O)c1)c1ccc(-c2ccccc2)c(F)c1 [Compound 9] = 2.422
• C[C@H](C(=O)Oc1cccc(C[C@H](N)C(=O)O)c1)c1cccc(C(=O)c2ccccc2)c1 [Compound 4] = 1.599
• NC(Cc1cccc(C(=O)Oc2ccc(-c3ccc(-c4ccc5c(c4)COC5=O)s3)cc2)c1)C(=O)O (stereo not shown) [Compound 1] = 1.792
• COc1ccc2cc([C@H](C)C(=O)Oc3cccc(C[C@H](N)C(=O)O)c3)ccc2c1 [Compound 15] = 1.448
• CC(C)Cc1ccc([C@H](C)C(=O)Nc2cccc(C[C@H](N)C(=O)O)c2)cc1 [Compound 10] = 2.151

Q) Return reported Vmax of [14C]-L-Leu uptake; argument: C[C@H](C(=O)OCc1ccc(C[C@@H](N)C(=O)O)cc1)c1cccc(C(=O)c2ccccc2)c1 [Compound 14]
A) 2.622

###

# systemName: LAT1 (Mus musculus)
# assaySummary: Cis-inhibition of radiolabelled LAT1-probe substrate uptake into BV2 cells
# Format: cell-based
# conditionsUsed: probe [3H]-L-Met, 5 min, mean ± SD, n = 3–4, read-out: IC50 of [3H]-L-Met uptake
reportedEndpoint: pIC50
Scale: pIC50 equals -log10([C]), with [C] in mol/L.

Please review the entries below; each comes with its answer.
- NC(Cc1cccc(C(=O)Oc2ccc(-c3ccc(-c4ccc5c(c4)COC5=O)s3)cc2)c1)C(=O)O (stereo not shown) [Compound 1]: 5.09
- C[C@H](C(=O)Nc1cccc(C[C@H](N)C(=O)O)c1)c1cccc(C(=O)c2ccccc2)c1 [Compound 2]: 5.48
- CC(C(=O)Nc1ccc(CC(N)C(=O)O)cc1)c1cccc(C(=O)c2ccccc2)c1 (stereo not shown) [Compound 3]: 4.77

Now look at this entry.
Q) What does the record list as pIC50 for COc1ccc2cc([C@H](C)C(=O)Oc3cccc(C[C@H](N)C(=O)O)c3)ccc2c1 [Compound 15] ?
A) 4.60

###

In this section, each of the compounds is paired with its reported half-life at 100 μM.
# assaySummary: Time-dependent cellular uptake of compounds into BV2 cells (LC-MS/MS)
# Format: cell-based, mouse
# conditionsUsed: mouse, BV2 microglia cells, 100 µM compound, 1–60 min, mean ± SD, n = 3, read-out: T½ of cellular uptake
# Procedure: For the time-dependent cellular uptake experiments, the BV2 cells on 24-well plates were incubated with studied compounds (100 μM) in a pre-warmed HBSS buffer (250 μL) at 37 °C for 1–60 min. Subsequently, the cells were washed three times with an ice-cold HBSS and lysed with 250 μL of NaOH (0.1 M) for 60 min. […] The samples were analyzed by the liquid chromatography-tandem mass spectrometric (LC-MS/MS) methods as described below. […]
Numeric only. Scale: min

* CC(C(=O)Nc1ccc(CC(N)C(=O)O)cc1)c1cccc(C(=O)c2ccccc2)c1 (stereo not shown) | 1.5
* C[C@H](C(=O)Oc1cccc(C[C@H](N)C(=O)O)c1)c1cccc(C(=O)c2ccccc2)c1 | 1.86

Consider the record given below.
Q) Consider the compound C[C@H](C(=O)OCc1ccc(C[C@@H](N)C(=O)O)cc1)c1cccc(C(=O)c2ccccc2)c1 and give its measured half-life at 100 μM.
A) 2.2

###

# systemName: LAT1 (Mus musculus, UniProt Q9Z127)
# assaySummary: Concentration-dependent cellular uptake into BV2 cells, Eadie–Hofstee analysis, Transport Type 1 (LAT1)
# Format: cell-based
# conditionsUsed: 1–200 µM, 30 min, BV2; Eadie–Hofstee; mean ± SD, n = 3
Let's look at some compounds and their measured Transport Type 1 (LAT1) Vmax.
Return type: number; implicit unit pmol/mg/min.

- COc1cc(/C=C/C(=O)Nc2cccc(C[C@H](N)C(=O)O)c2)ccc1O [Compound 6]: 0.11
- CC(C(=O)Nc1ccc(CC(N)C(=O)O)cc1)c1cccc(C(=O)c2ccccc2)c1 (stereo not drawn) [Compound 3]: 3.7

Now turn to the next compound.
Q) Which Transport Type 1 (LAT1) Vmax value is on record for COc1cc(/C=C/C(=O)Oc2cccc(C[C@H](N)C(=O)O)c2)ccc1O [Compound 7] ?
A) 0.09

###

# systemName: LAT1 (Mus musculus)
# assaySummary: Inhibition type of [14C]-L-Leu uptake (Hanes-Woolf plots) in BV2 cells
# Format: cell-based
# conditionsUsed: 0.010–0.20 µM [14C]-L-Leu in the presence of the compound at its IC50; BV2; mean ± SD, n = 3–4
Recorded measurements of Vmax of [14C]-L-Leu uptake, one per entry
Answer format: numeric, nmol/min/mg implied, no suffix.

- N[C@@H](Cc1cccc(NC(=O)c2ccccc2O)c1)C(=O)O: 1.644
- C[C@H](C(=O)Oc1cccc(C[C@H](N)C(=O)O)c1)c1ccc(-c2ccccc2)c(F)c1: 1.513
- C[C@H](C(=O)Nc1cccc(C[C@H](N)C(=O)O)c1)c1cccc(C(=O)c2ccccc2)c1: 2.759
- COc1cc(C=CC(=O)NCc2cccc(CC(N)C(=O)O)c2)ccc1O (centres unmarked): 1.910
- CC(C(=O)Nc1ccc(CC(N)C(=O)O)cc1)c1cccc(C(=O)c2ccccc2)c1 (centres unmarked): 2.851
- COc1cc(/C=C/C(=O)Oc2cccc(C[C@H](N)C(=O)O)c2)ccc1O: 2.780
- COc1cc(/C=C/C(=O)Nc2cccc(C[C@H](N)C(=O)O)c2)ccc1O: 3.224

Please turn your attention to the following entry.
Q) Missing value: Vmax of [14C]-L-Leu uptake, LAT1 (Mus musculus), entry COc1ccc2cc([C@H](C)C(=O)Nc3cccc(C[C@H](N)C(=O)O)c3)ccc2c1 . Fill in?
A) 1.515

###

The reader will find reported Km values listed item by item below.
# systemName: UniProt:Q9Z127
# assaySummary: Concentration-dependent cellular uptake into BV2 cells, Eadie–Hofstee analysis, Transport Type 1 (LAT1)
# Assay type: cell-based
# conditionsUsed: 1–200 µM, 30 min, BV2; Eadie–Hofstee; mean ± SD, n = 3
# Experimental: For the concentration-dependent cellular uptake experiments, the BV2 cells on 24-well plates were incubated with studied compounds (1–200 μM) in pre-warmed HBSS buffer (250 μL) at 37 °C for 30 min. The experiment was then carried out as described for the time-dependent uptake above and the concentration of studied compounds in the cell lysate was analyzed by the LC-MS/MS methods described above and the results were normalized to the total protein concentration. […]
Enter your answer as a number in µM; do not include the unit.

• COc1cc(/C=C/C(=O)Oc2cccc(C[C@H](N)C(=O)O)c2)ccc1O = 0.3

Q) I'd like to know its Km. The compound in question is COc1ccc2cc([C@H](C)C(=O)Oc3cccc(C[C@H](N)C(=O)O)c3)ccc2c1
A) 9.3

Q) Fill in: Km of CC(C)Cc1ccc([C@H](C)C(=O)Oc2cccc(C[C@H](N)C(=O)O)c2)cc1 is ___
A) 8.2

Q) Value lookup for Km; key = C[C@H](C(=O)Nc1cccc(C[C@H](N)C(=O)O)c1)c1cccc(C(=O)c2ccccc2)c1
A) 0.8

Q) For the compound COc1cc(C=CC(=O)NCc2cccc(CC(N)C(=O)O)c2)ccc1O (centres unmarked) , what Km is on record?
A) 2.1

Q) // Km lookup, key: CC(C(=O)Nc1ccc(CC(N)C(=O)O)cc1)c1cccc(C(=O)c2ccccc2)c1 (centres unmarked)
A) 1.9

Q) Any idea what its Km is? The compound is COc1ccc2cc([C@H](C)C(=O)Nc3cccc(C[C@H](N)C(=O)O)c3)ccc2c1
A) 2.6

Q) For the compound shown here, CC(C)Cc1ccc([C@H](C)C(=O)Nc2cccc(C[C@H](N)C(=O)O)c2)cc1 , give the reported Km.
A) 22

Q) Request the reported Km associated with COc1cc(/C=C/C(=O)Nc2cccc(C[C@H](N)C(=O)O)c2)ccc1O
A) 3.6

Q) Quick check: Km of C[C@H](C(=O)Oc1cccc(C[C@H](N)C(=O)O)c1)c1cccc(C(=O)c2ccccc2)c1 ?
A) 41

Q) // returns reported Km for input NC(Cc1cccc(C(=O)Oc2ccc(-c3ccc(-c4ccc5c(c4)COC5=O)s3)cc2)c1)C(=O)O (centres unmarked)
A) 116
